Tested on: P. vulgaris ATCC 49132
Assay Overview: Broth microdilution MIC, ATCC strains
Type: cell-based
Condition Description: Proteus vulgaris, ATCC49132; P. vulgaris ATCC 49132; read-out: MIC (growth inhibition, microdilution method)
Give measured MIC for each item. Keep answers brief.

# Compound, Target Under Test, Result
data = [
    ("COC(=O)c1sc(-c2ccc(F)cc2)cc1-c1nnn(C)n1 [DNM-144]", "P. vulgaris ATCC 49132", "> 8 µg/mL"),
    ("Cn1nnnc1-c1cc(-c2ccc(F)cc2)sc1-c1ccc(F)cc1 [DNM-133]", "P. vulgaris ATCC 49132", "> 16 µg/mL"),
    ("Cn1nnc(-c2cc(-c3ccc(F)cc3)sc2-c2ccc(F)cc2)n1 [DNM-132]", "P. vulgaris ATCC 49132", "> 16 µg/mL"),
    ("O=C(O)c1cc(-c2nn[nH]n2)cs1 [DNM-116]", "P. vulgaris ATCC 49132", "32 µg/mL"),
]

Query compound follows.
Inquiry: MIC lookup needed for Cn1nnnc1-c1cc(-c2ccc(F)cc2)sc1C(=O)O [DNM-143] , thanks.
Reply text: > 8 µg/mL

###

Test system: K. oxytoca ATCC 49131
Assay Overview: Broth microdilution MIC, ATCC strains
Assay type: cell-based
Condition Description: Klebsiella oxytoca, ATCC49131; K. oxytoca ATCC 49131; read-out: MIC (growth inhibition, microdilution method)
Readout Kind: MIC (µg/mL)
Give bare numbers, in µg/mL.

Below is a list of compounds. For each, state its recorded MIC.
1. COC(=O)c1cc(-c2nnnn2C)c(C(=O)OC)s1
2. Cn1nnnc1-c1cc(C(=O)O)sc1C(=O)O
3. O=C(O)c1cc(-c2nnn[nH]2)c(-c2ccc(F)cc2)s1

Reply text:
1: 8; 2: 8; 3: 64

Inquiry: MIC lookup needed for O=C(O)c1cc(-c2nn[nH]n2)cs1 , thanks.
Reply text: 16

###

Tested on: C. freundii clinical isolates
Assay Overview: Broth microdilution MIC, clinical isolate strains (NAUTICA)
Format: cell-based
Condition Description: clinical isolates, one table line per isolate; in µg/mL (unit assumed)
Give measured MIC, C. FREUNDII for each item. Keep answers brief.
Numbers only.

As a guide, the following entries are already answered.
# Compound, Target Under Test, MIC, C. FREUNDII
records = [
    ("COC(=O)c1cc(-c2nnn(C)n2)c(C(=O)OC)s1 [DNM-114]", "C. freundii clinical isolates", 128),
    ("O=C(O)c1cc(-c2nnn[nH]2)c(-c2ccc(F)cc2)s1 [DNM-121]", "C. freundii clinical isolates", 64),
    ("O=C(O)c1cc(-c2nnn[nH]2)c(C(=O)O)s1 [DNM-111]", "C. freundii clinical isolates", 128),
    ("Cn1nnc(-c2cc(C(=O)O)sc2-c2ccc(F)cc2)n1 [DNM-123]", "C. freundii clinical isolates", 8),
]

Query compound follows.
Inquiry: MIC, C. FREUNDII lookup needed for O=C(O)c1cc(-c2nn[nH]n2)cs1 [DNM-116] , thanks.
Reply text: 16

###

Give measured melting point for each item. Keep answers brief.

As a guide, the following entries are already answered.
# Compound, melting point
records = [
    ("COC(=O)c1cc(-c2nnn(C)n2)c(C(=O)OC)s1 [DNM-114]", "121 to 122 °C"),
    ("CCOC(=O)c1cc(-c2nnn(C)n2)c(-c2ccc(F)cc2)s1 [DNM-125]", "108 to 110 °C"),
    ("Cn1nnc(-c2cc(-c3ccc(F)cc3)sc2-c2ccc(F)cc2)n1 [DNM-132]", "150 to 152 °C"),
]

Inquiry: melting point lookup needed for COC(=O)c1sc(-c2ccc(F)cc2)cc1-c1nnn(C)n1 [DNM-144] , thanks.
Reply text: 131.5 to 132.5 °C
